test: Activity expressed as EC50 was measured in lizard.; format: functional
readout type: EC50 (µM)
# unit: µM | format: bare number

{"columns": ["compound", "EC50 / µM"],
 "data": [
  ["CC(=O)N[C@@H]1CSSC[C@@H](C(N)=O)NC(=O)[C@@H]2CCCCNC(=O)C[C@@H](NC1=O)C(=O)N[C@@H](Cc1c[nH]cn1)C(=O)N[C@H](Cc1ccccc1)C(=O)N[C@@H](CCCN=C(N)N)C(=O)N[C@H](Cc1c[nH]c3ccccc13)C(=O)N2", 0.033]
]}

Then there is this compound:
Query: Entry CC(=O)N[C@@H]1CSSC[C@H]2NC(=O)[C@@H](Cc3c[nH]c4ccccc34)NC(=O)[C@H](CCCN=C(N)N)NC(=O)C(Cc3ccccc3)NC(=O)[C@H](Cc3c[nH]cn3)NC(=O)[C@@H](CC(=O)NCCCC[C@H](C(=O)N3CCC[C@@H]3C(=O)N[C@H](C(N)=O)C(C)C)NC2=O)NC1=O (stereo in doubt) has what EC50?
Response: 0.033

###

assay: Activity expressed as EC50 was measured in lizard.; format: functional
Reported pEC50 values follow for various compounds
Keep in mind that pEC50 stands for -log10 of concentration in molar terms.

{"columns": ["compound", "pEC50"],
 "data": [
  ["CC(=O)N[C@@H](Cc1c[nH]cn1)C(=O)N[C@@H](Cc1ccccc1)C(=O)N[C@@H](CCCN=C(N)N)C(=O)N[C@@H](Cc1c[nH]c2ccccc12)C(N)=O", 4.82],
  ["CC(=O)N[C@@H]1CSSC[C@H]2NC(=O)[C@@H](Cc3c[nH]c4ccccc34)NC(=O)[C@H](CCCN=C(N)N)NC(=O)[C@H](Cc3ccccc3)NC(=O)[C@H](Cc3c[nH]cn3)NC(=O)[C@@H](CCC(=O)NCCCC[C@@H](C(N)=O)NC2=O)NC1=O", 6.40]
]}

Query: # query: pEC50 of entry CC(=O)N[C@@H]1CSSC[C@H](C(=O)N[C@H](CCCCN)C(N)=O)NC(=O)[C@@H](Cc2c[nH]c3ccccc23)NC(=O)[C@H](CCCN=C(N)N)NC(=O)C(Cc2ccccc2)NC(=O)[C@H](Cc2c[nH]cn2)NC(=O)[C@@H](CCC(=O)O)NC1=O (stereo in doubt)
Response: 9.52

###

Quick reference for pEC50 among some molecules
assay: Activity expressed as EC50 was measured in lizard.; assay type: functional
Where a SMILES comes first, the peptide text is derived from it. [ ]: non-standard residue; d: D form.
Formally, pEC50 is defined as -log10 of the concentration c, with c in mol/L.

Some solved cases for reference:
{"columns": ["molecule", "readout type", "reported result"],
 "data": [
  ["CC(=O)N[C@H](Cc1ccccc1)C(=O)N[C@@H](CCCN=C(N)N)C(=O)N[C@@H](Cc1c[nH]c2ccccc12)C(N)=O (Ac-[dF]-Arg-Trp-NH2)", "pEC50", 6.00],
  ["CC(=O)N[C@@H]1CSSC[C@H]2NC(=O)[C@@H](Cc3c[nH]c4ccccc34)NC(=O)[C@H](CCCN=C(N)N)NC(=O)[C@H](Cc3ccccc3)NC(=O)[C@H](Cc3c[nH]cn3)NC(=O)[C@@H](CC(=O)NCCCC[C@@H](C(N)=O)NC2=O)NC1=O", "pEC50", 7.48]
]}

Query: Item under review: CC(=O)N[C@@H](Cc1cnc[nH]1)C(=O)N[C@H](Cc1ccccc1)C(=O)N[C@@H](CCCNC(=N)N)C(=O)N[C@@H](Cc1c[nH]c2ccccc12)C(N)=O . Reported pEC50?
Response: 8.00
